- Tested on: Plasmodium berghei
- protocol_details: Screen against P. berghei liver stage (PbLuc), transformed with Luciferase, at 10uM
- Type: functional, HepG2
- test_parameters: tested at 10 uM
Screen size: about 69,000 compounds; about 8,600 (12%) showed an effect of 50% or more. The list comes from a sample in which strong results are over-represented; it also holds close analogues and randomly drawn compounds.
Could you please mark 1 for values of INHIBITION below 50% and -1 for values at or above it?

## Task Decide: INHIBITION of CC1CCN(CCNC(=O)c2sccc2C2CC2)CC1 strictly below 50%?
## Result -1

## Task For this molecule, is INHIBITION lower than 50%? O=C(NCC(=O)N1CCN(c2ccccc2)CC1)c1sccc1C1CC1
## Result -1

## Task Does CC1CCN(CCNC(=O)c2scnc2Cl)CC1 have INHIBITION strictly under 50%?
## Result 1

## Task Is INHIBITION strictly under 50% for the entry O=C(NCC(=O)N1CCCCC1)c1sccc1C1CC1 ?
## Result 1

New cases:
## Task Decide: INHIBITION of Cc1ncsc1CN1C[C@@H]2COC[C@]2(CNC(=O)c2ccccc2)C1 strictly below 50%?
## Result 1
